Assign tmax to each entry below.
Experiment: Test under self-initiation: irradiation and polymerisation in bulk without additional initiator
Settings: 100 wt-% compound, in bulk, no additional initiator

Which tmax is reported for this compound? C=CC(=O)N(CCCCCC)C(=O)C=C [[13], N-Hexylacrylimid]
21,3 s

Fill blank: measured tmax of the compound C=CC(=O)N(CCC)C(=O)C=C [[12], N-Propylacrylimid] is ____.
20,4 s

Look up tmax for this compound: C=CC(=O)N(CCN(CCN(C(=O)C=C)C(=O)C=C)CCN(C(=O)C=C)C(=O)C=C)C(=O)C=C [[22], Tris(2-acrylimidoethyl)amin]
16,8 s

----------
Assay: Test for initiator properties: photopolymerisation of HDDA with the acrylimide added as initiator
Conditions: double bond conversion from heat of polymerisation; approx. 6 mol-% imido groups in HDDA; 250-450 nm, 900 mW/cm^2
REPORTED_ENDPOINT: DBC

Quick one: DBC for C=CC(=O)N(CCC)C(=O)C=C [[12], N-Propylacrylimid] ?
82,6%

Query: DBC; subject: C=CC(=O)N(CCC(C)(C)CC(C)CN(C(=O)C=C)C(=O)C=C)C(=O)C=C (stereo not shown) [[17]]
75,3%

// query DBC value for entry C=CC(=O)N(CCOCCOCCN(C(=O)C=C)C(=O)C=C)C(=O)C=C [[20], N,N'-(3,6-Dioxa-1,8-octylen)bisacrylimid]
74,8%

# input compound: C=CC(=O)N(CC(CC)CCCC)C(=O)C=C (stereo not shown) [[14], N-2-Ethylhexylacrylimid] ; wanted: its DBC
80,9%
